Origin of measurements: patent US5948784A

SYSTEM_TESTED: [^3 H]-Nitrobenzylthioinosine (NBI) binding, cerebral cortex homogenate (Cavia porcellus, UniProt H0V4R7)
Construct: The cerebral cortex of a male guinea pig of Hartley strain was homogenized; from tissue; host or cells: cerebral cortex of male Hartley guinea pig (washed membrane precipitate)
Sequence (H0V4R7 1-461): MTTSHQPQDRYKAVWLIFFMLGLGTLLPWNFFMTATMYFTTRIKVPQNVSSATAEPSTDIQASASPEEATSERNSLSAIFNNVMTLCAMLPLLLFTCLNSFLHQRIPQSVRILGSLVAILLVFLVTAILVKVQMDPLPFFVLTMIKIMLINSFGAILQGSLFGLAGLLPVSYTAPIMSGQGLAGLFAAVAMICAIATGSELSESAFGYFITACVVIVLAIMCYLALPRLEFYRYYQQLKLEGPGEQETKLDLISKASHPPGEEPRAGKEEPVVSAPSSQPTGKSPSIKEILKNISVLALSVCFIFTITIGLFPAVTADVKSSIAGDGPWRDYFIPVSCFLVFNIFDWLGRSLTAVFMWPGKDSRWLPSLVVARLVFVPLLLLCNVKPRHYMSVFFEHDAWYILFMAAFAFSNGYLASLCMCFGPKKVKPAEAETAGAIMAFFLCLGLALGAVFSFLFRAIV
EXPERIMENT: Inhibitory Effect on [^3 H]-Nitrobenzylthioinosine (NBI) Binding
Parameters: species or system guinea pig (male, Hartley strain)
ASSAY_CONDITIONS: guinea pig cerebral cortex, 1.5 nM [^3 H]-NBI, 25° C., 30 minutes, Cheng-Prusoff
pKi: −log10 of the molar value.
QUANTITY: pKi

1 = COc1cc2nc(N3CCOCC3)nc(N3CCC(n4c(=O)c5cc(C)ccc5n(C)c4=O)CC3)c2cc1OC
2 = CCOC(=O)C1CCN(c2nc(N3CCC(n4c(=O)c5cc(C)ccc5n(C)c4=O)CC3)c3cc(OC)c(OC)cc3n2)CC1
3 = COc1cc2nc(N(C)CCN(C)C)nc(N3CCC(n4c(=O)c5cc(C)ccc5n(C)c4=O)CC3)c2cc1OC
Which order do these fall in by pKi? Give them lowest to highest. Labels, requested order. 2, 3, 1
(2: 8.12, 3: 8.42, 1: 8.70)

a = CCCNc1nc(N2CCC(n3c(=O)c4cc(C)ccc4n(C)c3=O)CC2)c2cc(OC)c(OC)cc2n1
b = COc1cc2nc(N(C)C)nc(N3CCC(n4c(=O)c5cc(C)ccc5n(C)c4=O)CC3)c2cc1OC
Consider entries a and b . Which has the numerically lower pKi? Lab log: write the label of the selected item as the result. b
(b: 8.59, a: 8.85)
